# assayed.target: T1, Fc-G236A (human, UniProt P01857-1 104-330 = IgG part, G236A)
# T1 construct: domain: Fc fragment; Positions in EU numbering; also called IgG1-Fc G236A
# protocol.summary: SPR (IBIS MX96), FcγR captured on sensor, Fc fragment titrated, pH 7.4, equilibrium 1:1 fit
parameter: Kd (nM)
The figure you give is taken to be in nM; do not add the unit.

Exercise: State its Kd for this binder: human FcγRIIa-131H (receptor, UniProt P12318 34-218, looked up, C-terminal biotin, Bought, C-terminally biotinylated; captured on a streptavidin sensor) QAAAPPKAVLKLEPPWINVLQEDSVTLTCQGARSPESDSIQWFHNGNLIPTHTQPSYRFKANNNDSGEYTCQTGQTSLSDPVHLTVLSEWLVLQTPHLEFQEGETIMLRCHSWKDKPLVKVTFFQNGKSQKFSHLDPTFSIPQANHSHSGDYHCTGNIGYTLFSSKPVTITVQVPSMGSSSPMGI
Key: 91.1

Exercise: State its Kd for this binder: human FcγRIIa-131R (receptor, UniProt P12318 34-218, looked up, C-terminal biotin, Bought, C-terminally biotinylated; captured on a streptavidin sensor) QAAAPPKAVLKLEPPWINVLQEDSVTLTCQGARSPESDSIQWFHNGNLIPTHTQPSYRFKANNNDSGEYTCQTGQTSLSDPVHLTVLSEWLVLQTPHLEFQEGETIMLRCHSWKDKPLVKVTFFQNGKSQKFSRLDPTFSIPQANHSHSGDYHCTGNIGYTLFSSKPVTITVQVPSMGSSSPMGI
Key: 166
